The reported numbers originate from PubChem BioAssay (NCI).

assay_explanation: NCI Yeast Anticancer Drug Screen. Data for the cln2 rad14 strain (AID 165);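 further: 0% = growth equal to vehicle treated cultures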
measurement_context: S. cerevisiae cln2 rad14 strain, at 50.0 µM, stronger effect = higher value
The panel holds about 79,000 compounds, 15% with a hit somewhere; the sample as a whole holds those more often.
Assign TRUE to entries whose growth inhibition meets or exceeds 50%; assign FALSE to the rest.

| molecule | label_value |
| --- | --- |
| O=C1C=CC(=O)N1c1ccc(-c2nc3ccccc3o2)cc1 | TRUE |
| O=C(Sc1ccccc1)C1OC12CCCCC2 (configuration not stated) | FALSE |
| C=CC(=O)N1C/C(=C\c2ccccc2)C(=O)/C(=C/c2ccccc2)C1 | FALSE |
| COC(=O)c1ccc2ccccc2c1C(=O)c1ccc(F)cc1 | TRUE |
| Cc1ccccc1C(=O)C(C)c1ccccc1 (configuration not stated) | FALSE |

Problem: Threshold query (growth inhibition >= 50%) on O=C(O)CCC(=O)NNc1ccccc1
Solution: TRUE

Problem: Threshold query (growth inhibition >= 50%) on Nc1nnc2nc(C(C(=O)c3ccccc3Cl)c3nc4nnc(N)n4[nH]c3=O)c(=O)[nH]n12
Solution: TRUE

###

growth inhibition by entry:
assay_explanation: NCI Yeast Anticancer Drug Screen. Data for the mec2-1 strain (AID 157)
measurement_context: S. cerevisiae mec2-1 strain, at 50.0 µM (retest, dose inferred, filed as 5.0), stronger effect = higher value
About 79,000 compounds went through this panel and 15% of them were active in at least one assay; those are over-represented in the sample as a whole.
Give the number; % is assumed, so skip it.

Some molecules with known growth inhibition results, for comparison:
| molecule | display_unit | growth inhibition |
| --- | --- | --- |
| CCCCCCCCCC(=O)CC(=O)c1ccc(O)cc1O | % | 97 |
| Cn1cnc([N+](=O)[O-])c1Sc1ccc(Cl)cc1 | % | 92 |

Problem: Value lookup for growth inhibition; key = Cc1ccc(C(CN)(CCBr)c2ccc(C)cc2)cc1
Solution: 98

Problem: Value lookup for growth inhibition; key = O=C(Nc1cccc(C(F)(F)F)c1)O/N=C(/Cl)CCl
Solution: 100

Problem: Value lookup for growth inhibition; key = CCCCCCCC/C=C\CCCCCCCC(=O)O (tested in a mixture with another compound)
Solution: 100

Problem: Value lookup for growth inhibition; key = NC(=O)c1ccc[n+](CC(=O)Nc2ccc(Cl)cc2)c1
Solution: -4

Problem: Value lookup for growth inhibition; key = c1ccc(CCNCc2ccco2)nc1
Solution: -20

Problem: Value lookup for growth inhibition; key = Nc1ncnc2c1ncn2CC(O)CN(CCO)CCO (stereo unspecified) (tested in a mixture with another compound)
Solution: -7

Problem: Value lookup for growth inhibition; key = COc1ccc(OC)c2c1C=C[C@H](C1(C)SCCS1)C2C(C)=O (stereo partly specified)
Solution: 88

Problem: Value lookup for growth inhibition; key = O=C(O)c1ccc([N+](=O)[O-])o1
Solution: 16

Problem: Value lookup for growth inhibition; key = Cc1nc2c(cnn2-c2ccccc2)c(=O)o1
Solution: -52

###

assay_explanation: NCI Yeast Anticancer Drug Screen. Data for the sgs1 mgt1 strain (AID 161);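 further: 0% = growth of cultures given vehicle only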
measurement_context: S. cerevisiae sgs1 mgt1 strain, at 50.0 µM (retest, dose inferred, filed as 5.0)
The panel holds about 79,000 compounds, 15% with a hit somewhere; the sample as a whole holds those more often. Activity calls are given as the source filed them. No stated cut-off is given here; in the data, active means growth inhibition above about 70%; inactive means the rest.
Log the outcome using a class from true (1) for active, false (0) for inactive

| molecule | label_value |
| --- | --- |
| C=CCOC(=O)C(O)C(CC)CCCCC (configuration not stated) | true (1) |

Problem: Hey, what did the test say about CCc1cccc(C)c1N1C(=O)C(=O)C(c2nc3ccccc3o2)/C(=N\NS(=O)(=O)c2ccc(C)cc2)C1=O (configuration not stated) ?
Solution: false (0)

Problem: Hey, what did the test say about N#CC(CC(Br)CBr)(c1ccccc1)c1ccccc1 (configuration not stated) ?
Solution: false (0)

Problem: Hey, what did the test say about C[P+](c1ccccc1)(c1ccc(Cl)cc1)c1ccc(Cl)cc1 ?
Solution: true (1)

###

assay_explanation: NCI Yeast Anticancer Drug Screen. Data for the mec2-1 strain (AID 157)
measurement_context: S. cerevisiae mec2-1 strain, at 50.0 µM
This is part of a sample that, as a whole, favours compounds with a hit. Of some 79,000 tested, about 15% had one in any assay. Active and inactive are the calls of the source. Rule as the data show it: active = growth inhibition above about 70%; inactive = the rest.
Log the outcome using a class from y = active, n = inactive

Some solved cases for reference:
| compound | label_value |
| --- | --- |
| CN(C)c1ccc(-c2c(C#N)c(S)n(NS(=O)(=O)c3ccccc3)c(=O)c2C#N)cc1 | y |
| Cc1ccc(S)c(S)c1 | n |
| CC(=O)Oc1cc(OC(C)=O)c2cc(Br)ccc2c1OC(C)=O | y |

Problem: Hey, what did the test say about COc1ccc(COCCOCc2nc(C#N)c(N)o2)cc1 ?
Solution: n

Problem: Hey, what did the test say about Cc1ccc2c(n1)C(=O)C=CC2=O ?
Solution: y

###

assay_explanation: NCI Yeast Anticancer Drug Screen. Data for the bub3 strain (AID 167)
measurement_context: S. cerevisiae bub3 mutant strain, at 50.0 µM
The panel holds about 79,000 compounds, 15% with a hit somewhere; the sample as a whole holds those more often. Active and inactive are the calls of the source. No stated cut-off is given here; in the data, active means growth inhibition above about 70%; inactive means the rest.
Log the outcome using a class from active, inactive

Some solved cases for reference:
| compound | label_value |
| --- | --- |
| O=C(O)/C=C/C(=O)c1ccccc1 | inactive |
| COC(=O)c1c[nH]c2ccc(Br)cc12 | inactive |
| COc1ccc(C2c3cc4c(cc3OC(NCCO)C2C)OCO4)cc1 (stereo not given) | active |
| CCOC(=O)/C(=C\c1cccc(C(F)(F)F)c1)P(=O)(OCC)OCC | active |
| CC1Cc2ccc3c(c2C(c2ccc4c(c2)OCO4)C1C)OCO3 (stereo not given) | inactive |

Problem: Hey, what did the test say about O=C1OC2(c3ccccc31)c1cc(I)c(O)c(I)c1Oc1c2cc(I)c(O)c1I ?
Solution: active

Problem: Hey, what did the test say about CN=S(=O)(OCCCCOS(=O)(=NC)c1ccccc1)c1ccccc1 (stereo not given) ?
Solution: inactive

Problem: Hey, what did the test say about CC(O)CC(O)CC1CCCO1 (stereo not given) ?
Solution: active

Problem: Hey, what did the test say about Cc1cc2nc3n(c2cc1C)C(c1c(F)cccc1F)SC3 (stereo not given) ?
Solution: inactive

Problem: Hey, what did the test say about O=Nc1c(-c2c[nH]c3ccccc23)[nH]c2ccccc12 ?
Solution: inactive

Problem: Hey, what did the test say about Cc1cc(C)[nH]c(=S)n1.[Pt] ?
Solution: inactive

Problem: Hey, what did the test say about Cc1cccc(O)c(=O)c1 ?
Solution: active

Problem: Hey, what did the test say about F[Si](c1ccccc1)(c1ccccc1)c1ccccc1 ?
Solution: inactive

Problem: Hey, what did the test say about C=C(Br)CN1CCC2(c3ccccc3)C(O)C([Se]c3ccccc3)CCC12 (stereo not given) ?
Solution: active

Problem: Hey, what did the test say about CC(=O)Sc1ccccc1C(=O)NCc1ccc(Cl)cc1 ?
Solution: active

Problem: Hey, what did the test say about CC(C)/C(Cl)=N\OC(=O)Nc1cccc(F)c1 ?
Solution: inactive

Problem: Hey, what did the test say about O=C1c2ccccc2C(=O)c2c1ccc(C(=O)O)c2-c1ccc2ccccc2c1 ?
Solution: active

Problem: Hey, what did the test say about COc1cccc2c1[n+]([O-])c1cccc(O)c1[n+]2[O-] ?
Solution: active

Problem: Hey, what did the test say about COc1ccc(/C=C2\N=C(c3ccco3)OC2=O)cc1Br ?
Solution: inactive

Problem: Hey, what did the test say about CCCCCCOC(=O)COc1ccccc1 ?
Solution: inactive

###

assay_explanation: NCI Yeast Anticancer Drug Screen. Data for the rad50 strain (AID 155);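 further: 0% = growth of vehicle-only cultures of the same strain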
measurement_context: S. cerevisiae rad50 strain growth inhibition; at 50.0 µM (retest, dose inferred, filed as 5.0)
This is part of a sample that, as a whole, favours compounds with a hit. Of some 79,000 tested, about 15% had one in any assay. Calls of active or inactive are those of the source. Cut-off read from the data, not from the text of the source: active = growth inhibition above about 70%; inactive = the rest.
Log the outcome using a class from active, inactive

Some solved cases for reference:
| compound | label_value |
| --- | --- |
| COc1ccc(C23OCCN2C(=O)c2ccccc23)cc1 (configuration not stated) | inactive |
| O=S(=O)(Sc1ccccc1)C(c1ccccc1)c1ccccc1 | active |
| COc1cc(NCC(C)(O)CN2CCC(C)CC2C)c2ncccc2c1 (configuration not stated) | inactive |
| CC(C)C1=C(O)C2=C(C(=O)C1=O)C1(C)CCCC(C)(C)C1C(O)C2OC=O (configuration not stated) | active |
| O=C1C/C(=C\c2ccccc2)C(=O)c2ccccc2N1 | inactive |
| N#CNc1nc(N)c(-c2ccc(Cl)cc2)c(C(=O)Nc2ccc(Cl)c(Cl)c2)n1 | inactive |
| O=C1C=CC(=O)N1CCCCCCN1C(=O)C=CC1=O | active |
| NC(=O)c1ncn(C2OC(CO)C(O)C2O)c1O (configuration not stated) | inactive |
| c1ccc([P+](c2ccccc2)(c2ccccc2)C2CCCC2)cc1 | inactive |
| O=C(Nc1ccccc1)OCCN=c1c2ccccc2ccc2ccccc12 | active |

Problem: Hey, what did the test say about CN(C)c1ccc(C=Nc2ccc(OCCCCCCCCCCC(=O)O)cc2)cc1 ?
Solution: active

Problem: Hey, what did the test say about CCCCCCCCCCCCCCCCC#N ?
Solution: inactive
